System: Ctenocephalides felis
Assay: Ctenocephalides felis adulticide assay: C. felis dose response (LC50)
PROPERTY_MEASURED: C. felis LC50 (ppm)

[
  {
    "MOLECULE": "CCCN(N=C(C)c1cc(Cl)ccc1NS(=O)(=O)C(F)(F)F)c1ccccc1 [Compound 25]",
    "VALUE_OBSERVED": 1.8
  },
  {
    "MOLECULE": "CCN(N=C(C)c1cc(Cl)ccc1NS(=O)(=O)C(F)(F)F)c1ccccc1F [Compound 43]",
    "VALUE_OBSERVED": 0.35
  },
  {
    "MOLECULE": "CCC(=NN1CCOC1=O)c1cc(Cl)ccc1NS(=O)(=O)C(F)(F)F [Compound 35]",
    "VALUE_OBSERVED": 4.3
  },
  {
    "MOLECULE": "CC(=NN1CCOCC1)c1cc(Cl)ccc1NS(=O)(=O)C(F)(F)F [Compound 20]",
    "VALUE_OBSERVED": 0.86
  },
  {
    "MOLECULE": "CCC(=NN1CCOCC1)c1cc(Cl)ccc1NS(=O)(=O)C(F)(F)F [Compound 36]",
    "VALUE_OBSERVED": 2.5
  },
  {
    "MOLECULE": "CCC(=NN1CCCCC1)c1cc(Cl)ccc1NS(=O)(=O)C(F)(F)F [Compound 129]",
    "VALUE_OBSERVED": 2.82
  },
  {
    "MOLECULE": "CCN(N=C(C)c1cc(Cl)ccc1NS(=O)(=O)C(F)(F)F)c1ccc(Br)cc1 [Compound 54]",
    "VALUE_OBSERVED": 1.6
  },
  {
    "MOLECULE": "CCCN(N=C(C)c1cc(Cl)ccc1NS(=O)(=O)C(F)(F)F)c1ccc(C(F)(F)F)cc1 [Compound 41]",
    "VALUE_OBSERVED": 0.44
  },
  {
    "MOLECULE": "CCN(N=C(C)c1cc(Cl)ccc1NS(=O)(=O)C(F)(F)F)c1ccc(Cl)cc1Cl [Compound 30]",
    "VALUE_OBSERVED": 5.2
  },
  {
    "MOLECULE": "C/C(=N\\N(C)C1CCCC1)c1cc(Cl)ccc1NS(=O)(=O)C(F)(F)F [Compound 211]",
    "VALUE_OBSERVED": 1.9
  },
  {
    "MOLECULE": "CCN(N=C(C)c1cc(Cl)ccc1NS(=O)(=O)C(F)(F)F)c1ccc(Cl)cc1 [Compound 26]",
    "VALUE_OBSERVED": 0.12
  },
  {
    "MOLECULE": "CCCN(N=C(C)c1cc(Cl)ccc1NS(=O)(=O)C(F)(F)F)c1cccc(F)c1 [Compound 72]",
    "VALUE_OBSERVED": 1.5
  },
  {
    "MOLECULE": "CC(=NN(c1ccc(F)cc1)C(C)C)c1cc(Cl)ccc1NS(=O)(=O)C(F)(F)F [Compound 48]",
    "VALUE_OBSERVED": 0.64
  },
  {
    "MOLECULE": "CC(=NN(C)c1cccc(C(F)(F)F)c1)c1cc(Cl)ccc1NS(=O)(=O)C(F)(F)F [Compound 203]",
    "VALUE_OBSERVED": 1.30
  },
  {
    "MOLECULE": "CC(=NN(C)c1cccc(Cl)c1)c1cc(Cl)ccc1NS(=O)(=O)C(F)(F)F [Compound 51]",
    "VALUE_OBSERVED": 0.82
  },
  {
    "MOLECULE": "CCC(=NN(CC)C(=O)OC)c1cc(Cl)ccc1NS(=O)(=O)C(F)(F)F [Compound 140]",
    "VALUE_OBSERVED": 3.70
  },
  {
    "MOLECULE": "CCCN(N=C(C)c1cc(Cl)ccc1NS(=O)(=O)C(F)(F)F)c1ccc(C)cc1 [Compound 73]",
    "VALUE_OBSERVED": 2.1
  }
]
